Reported standardised AUC values are given for each entry in this list.
# Tested on: KHOS-NP
# test description: standardised AUC of viability dose-response curve (72 h) (fraction (0-1)); higher = less growth inhibition (more resistant)
Give only the figure.

# molecule, assay result
rows = [
    ("CCN(CC)CCNC(=O)c1c(C)[nH]c(/C=C2\\C(=O)Nc3ccc(F)cc32)c1C [SUNITINIB]", 0.88),
    ("CC(C)NC[C@@H](C(=O)N1CCN(c2ncnc3c2[C@H](C)C[C@H]3O)CC1)c1ccc(Cl)cc1 [IPATASERTIB]", 0.954),
    ("COc1cc(CCc2cc(NC(=O)c3ccc(N4CC(C)NC(C)C4)cc3)n[nH]2)cc(OC)c1 (stereo not drawn) [AZD-4547]", 0.947),
]

We now examine a further molecule.
Asked: Entry under review: CC#CC(=O)N1CCC[C@H]1c1nc(-c2ccc(C(=O)Nc3ccccn3)cc2)c2c(N)nccn12 [ACALABRUTINIB] . Reported standardised AUC?
Given back: 1
